test system: MCF7; assay: cells; details: Homo sapiens, MCF7, 48 h
recordedMetric: IC50

Memo: COc1ccc2nc3cc(Cl)ccc3c(Nc3cccc(N)n3)c2c1 , reported IC50: 17.6 µM

Memo: COc1ccc2nc3cc(Cl)ccc3c(Nc3ccncc3)c2c1 , reported IC50: > 50 µM

Memo: COc1ccc2nc3cc(Cl)ccc3c(Nc3ccccc3OC)c2c1 , reported IC50: > 50 µM

Memo: COc1ccc2nc3cc(Cl)ccc3c(Nc3ccc(N)cc3)c2c1 , reported IC50: 23.2 µM

Memo: COc1ccc2nc3cc(Cl)ccc3c(Nc3cccc(NC(C)=O)c3)c2c1 , reported IC50: > 50 µM

Memo: COc1ccc2nc3cc(Cl)ccc3c(Nc3cc(OC)c(OC)c(OC)c3)c2c1 , reported IC50: > 50 µM

Memo: COc1ccc2nc3cc(Cl)ccc3c(NCCN)c2c1 , reported IC50: 9.3 µM

Memo: COc1ccc2nc3cc(Cl)ccc3c(Nc3ccc(C)cc3)c2c1 , reported IC50: 19.9 µM

Memo: CCOc1ccc(Nc2c3ccc(Cl)cc3nc3ccc(OC)cc23)cc1 , reported IC50: 41.6 µM

Memo: COc1ccc2nc3cc(Cl)ccc3c(Nc3ccc(OC(F)(F)F)cc3)c2c1 , reported IC50: 18.9 µM

Memo: COc1ccc2nc3cc(Cl)ccc3c(Nc3ccccc3Cl)c2c1 , reported IC50: > 50 µM

###

test system: HepG2; assay: cells; settings: Homo sapiens, HepG2, 48 h
recordedMetric: log10(IC50) (log10 of the value in µM)
Hey, these are logged values: log10 of IC50, µM being the unit before logging.

Bench note, HepG2: CCOc1ccc(Nc2c3ccc(Cl)cc3nc3ccc(OC)cc23)cc1 , log10(IC50) reads 0.87

Bench note, HepG2: COc1cc2c(c(OC)c1OC)-c1ccc(OC)c(=O)cc1[C@@H](NC(C)=O)CC2 [COLCHICINE] , log10(IC50) reads 0.28

Bench note, HepG2: CCOc1ccccc1Nc1c2ccc(Cl)cc2nc2ccc(OC)cc12 , log10(IC50) reads 1.45

Bench note, HepG2: COc1ccc2nc3cc(Cl)ccc3c(Nc3ccc(N)cc3)c2c1 , log10(IC50) reads 1.04

Bench note, HepG2: COc1ccc2nc3cc(Cl)ccc3c(Nc3ccccc3F)c2c1 , log10(IC50) reads 1.66

Bench note, HepG2: COc1ccc2nc3cc(Cl)ccc3c(NCc3ccccc3OC)c2c1 , log10(IC50) reads 0.62

Bench note, HepG2: COc1ccc2nc3cc(Cl)ccc3c(Nc3cccc(O)c3)c2c1 , log10(IC50) reads 0.98

Bench note, HepG2: COc1ccc(Nc2c3ccc(Cl)cc3nc3ccc(OC)cc23)cc1 , log10(IC50) reads 0.80

Bench note, HepG2: COc1ccc2nc3cc(Cl)ccc3c(Nc3ccccc3O)c2c1 , log10(IC50) reads 1.06

Bench note, HepG2: COc1ccc2nc3cc(Cl)ccc3c(NCCN)c2c1 , log10(IC50) reads 0.78

Bench note, HepG2: COc1ccc2nc3cc(Cl)ccc3c(Nc3ccc(OC(F)(F)F)cc3)c2c1 , log10(IC50) reads 1.01

Bench note, HepG2: COc1ccc2nc3cc(Cl)ccc3c(Nc3cccc(N)n3)c2c1 , log10(IC50) reads 1.51

Bench note, HepG2: COc1cccc(Nc2c3ccc(Cl)cc3nc3ccc(OC)cc23)c1 , log10(IC50) reads 1.17

Bench note, HepG2: COc1ccc2nc3cc(Cl)ccc3c(Nc3cccc(NC(C)=O)c3)c2c1 , log10(IC50) reads 1.57

Bench note, HepG2: COc1ccc2nc3cc(Cl)ccc3c(Nc3cc(OC)c(OC)c(OC)c3)c2c1 , log10(IC50) reads 1.23

Bench note, HepG2: COc1ccc2nc3cc(Cl)ccc3c(Nc3cccnc3N)c2c1 , log10(IC50) reads 1.03

Bench note, HepG2: COc1ccc2nc3cc(Cl)ccc3c(Nc3ccccc3Cl)c2c1 , log10(IC50) reads 1.48

Bench note, HepG2: COc1ccc2nc3cc(Cl)ccc3c(Nc3ccc(C)cc3)c2c1 , log10(IC50) reads 0.94

Bench note, HepG2: COc1ccc2nc3cc(Cl)ccc3c(Nc3ccncc3)c2c1 , log10(IC50) reads 0.61

###

molecular target: UniProt P12931; assay: Inhibition of SRC at 50 uM after 1 hr
Sequence (P12931 2-536 limits assumed): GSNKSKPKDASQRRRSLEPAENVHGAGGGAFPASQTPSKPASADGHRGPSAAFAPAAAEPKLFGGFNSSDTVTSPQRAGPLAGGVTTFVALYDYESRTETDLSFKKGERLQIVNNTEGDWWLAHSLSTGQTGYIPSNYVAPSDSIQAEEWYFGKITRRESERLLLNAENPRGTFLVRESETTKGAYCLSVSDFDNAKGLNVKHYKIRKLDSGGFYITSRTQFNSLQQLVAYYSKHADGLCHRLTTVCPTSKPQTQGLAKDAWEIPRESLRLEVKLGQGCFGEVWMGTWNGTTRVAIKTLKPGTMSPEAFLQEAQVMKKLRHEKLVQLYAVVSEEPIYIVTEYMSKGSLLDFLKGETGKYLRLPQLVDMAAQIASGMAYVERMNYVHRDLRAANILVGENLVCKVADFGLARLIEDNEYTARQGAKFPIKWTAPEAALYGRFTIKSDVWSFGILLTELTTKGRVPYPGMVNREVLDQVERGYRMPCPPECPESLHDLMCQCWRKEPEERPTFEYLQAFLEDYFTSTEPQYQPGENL
So I've got a bunch of molecules here, and I need their inhibition values.
A bare number is not enough; add the unit after it.

Memo: CN[C@@H]1C[C@H]2O[C@@](C)([C@@H]1OC)n1c3ccccc3c3c4c(c5c6ccccc6n2c5c31)C(=O)NC4 , reported inhibition: 99.4%

Memo: COc1ccc2nc3cc(Cl)ccc3c(Nc3ccc(C(=O)O)c(O)c3)c2c1 , reported inhibition: 2.8%

Memo: COc1ccc2nc3cc(Cl)ccc3c(Nc3cccc(N)n3)c2c1 , reported inhibition: 6.12%

Memo: COc1ccc2nc3cc(Cl)ccc3c(NCc3ccccc3OC)c2c1 , reported inhibition: 8.02%

###

So I've got a bunch of molecules here, and I need their IC50 values.
test system: MCF7; assay: cells; conditions: Homo sapiens, MCF7, 48 h

Memo: COc1cccc(Nc2c3ccc(Cl)cc3nc3ccc(OC)cc23)c1 , reported IC50: > 50 µM

Memo: COc1ccc2nc3cc(Cl)ccc3c(Nc3ccccc3F)c2c1 , reported IC50: > 50 µM

Memo: CCOc1ccccc1Nc1c2ccc(Cl)cc2nc2ccc(OC)cc12 , reported IC50: > 50 µM

Memo: COc1ccc(Nc2c3ccc(Cl)cc3nc3ccc(OC)cc23)cc1 , reported IC50: > 50 µM

Memo: COc1ccc2nc3cc(Cl)ccc3c(Nc3ccc(C(F)(F)F)cc3)c2c1 , reported IC50: > 50 µM

Memo: COc1ccc2nc3cc(Cl)ccc3c(NCc3ccccc3OC)c2c1 , reported IC50: 23.8 µM

###

tested on: MCF7; experiment: cells; conditions: Homo sapiens, MCF7, 48 h
recordedMetric: IC50

Bench note, MCF7: COc1ccc2nc3cc(Cl)ccc3c(Nc3ccc(C(=O)O)c(O)c3)c2c1 , IC50 reads > 50 µM

Bench note, MCF7: COc1cc2c(c(OC)c1OC)-c1ccc(OC)c(=O)cc1[C@@H](NC(C)=O)CC2 [COLCHICINE] , IC50 reads 1.9 µM

Bench note, MCF7: COc1ccc2nc3cc(Cl)ccc3c(Nc3cccnc3N)c2c1 , IC50 reads 23.2 µM

Bench note, MCF7: COc1ccc2nc3cc(Cl)ccc3c(Nc3cccc(O)c3)c2c1 , IC50 reads 13.2 µM

Bench note, MCF7: COc1ccc2nc3cc(Cl)ccc3c(Nc3ccccc3O)c2c1 , IC50 reads > 50 µM

###

So I've got a bunch of molecules here, and I need their pIC50 values.
test system: HepG2; test: cells; settings: Homo sapiens, HepG2, 48 h
pIC50: −log10 of the molar value.

Memo: COc1ccc2nc3cc(Cl)ccc3c(Nc3ccc(C(F)(F)F)cc3)c2c1 , reported pIC50: < 4.30

Memo: COc1ccc2nc3cc(Cl)ccc3c(Nc3ccccc3OC)c2c1 , reported pIC50: < 4.30

Memo: COc1ccc2nc3cc(Cl)ccc3c(Nc3ccc(C(=O)O)c(O)c3)c2c1 , reported pIC50: < 4.30
